system: A498; assay: NCI tumour cell line growth inhibition, 48 h
Activity calls are given as the source filed them. Rule as the data show it: active = GI50 up to about 1.1 µM and inactive = higher.
Your answer must be one of the following: active, inactive

Example entries and their recorded answers appear below.
[ask] Write down the call the test reported for this compound. Item: COC(=O)C1=C(O)C(C(=O)OC)[C@]2(O)[C@H](C(=O)OC)[C@H]1C[C@@H](c1ccc(F)cc1)[C@H]2C(=O)OC (some centres not stated)
[reply] inactive

[ask] Tell me the assay call for NC(=S)N1N=C2c3ccccc3CCC[C@H]2[C@@H]1c1ccccc1 please.
[reply] inactive

New cases:
[ask] GET /call?item= Cc1nn(-c2ccccc2)c(C)c1/C=N/NC(=O)c1sc(=S)n(-c2ccc(Cl)cc2)c1N returns the recorded outcome of this test.
[reply] inactive

[ask] Entry C=C(Br)CNC(=O)CCC(=O)NCC(=C)Br : call = ?
[reply] inactive

[ask] Hi, do you know how CCCCCCCCCCCCCCCCCCCCCC(=O)Nc1ccn(C2OC(CO)C(O)C2O)c(=O)n1 (configuration not stated) came out in this test?
[reply] inactive

[ask] Record lookup: outcome of this test for O=c1[nH]c2ccc([N+](=O)[O-])c(Cl)c2c2ccccc12 ?
[reply] inactive

[ask] Fill in: this test's call for CC12CCC3(OCCO3)C(OC(=O)c3ccccc3)=C1CCC21OCCO1 (configuration not stated) is ___
[reply] inactive

[ask] Dear colleague, could you share the recorded outcome for O=P1(N(CCCl)CCCl)Oc2ccc(Cl)cc2Sc2c(ccc(Cl)c2Cl)O1 (configuration not stated) when you have a moment?
[reply] inactive
